Listing of entries alongside the reported IC50.
# System: Vero
# experiment-description: Cytotoxicity against african green monkey Vero cells
# Format: cell-based
# cond: Chlorocebus sabaeus

smiles | comparison-operator | IC50, µM
C=C(CC[C@@H](C)[C@H]1CC[C@H]2[C@@H]3[C@@H](O)C=C4C[C@@H](O)CC[C@]4(C)[C@H]3CC[C@]12C)C(C)C | = | 31
CC(C)[C@@]1(CC[C@@H](C)[C@H]2CC[C@H]3[C@@H]4[C@H](O)C=C5C[C@@H](O)CC[C@]5(C)[C@H]4CC[C@]23C)CO1 | > | 100
C=C(CC[C@@H](C)[C@H]1CC[C@H]2[C@@H]3[C@H](O)C=C4C[C@@H](O)CC[C@]4(C)[C@H]3CC[C@]12C)C(C)C | = | 58
CC(C)[C@@]1(CC[C@@H](C)[C@H]2CC[C@H]3[C@@H]4[C@@H](O)C=C5C[C@@H](O)CC[C@]5(C)[C@H]4CC[C@]23C)CO1 | = | 16
CC(C)C(=O)CC[C@@H](C)[C@H]1CC[C@H]2[C@@H]3[C@H](O)C=C4C[C@@H](O)CC[C@]4(C)[C@H]3CC[C@]12C | = | 9.9
CC(C)C(=O)CC[C@@H](C)[C@H]1CC[C@H]2[C@@H]3[C@@H](O)C=C4C[C@@H](O)CC[C@]4(C)[C@H]3CC[C@]12C | = | 21
